Just for reference, the supplement of paper PMC8671470 is where these values come from.

tested on: THP-1; test: cell viability (% survival relative to DMSO control, bortezomib = 0%); higher = less cytotoxic; conditions: 10 nM; 72 h
MEASURED_ATTRIBUTE: cell viability (%)

[[record]]
molecule = "O=C(O)c1cc(N=Nc2ccc(S(=O)(=O)Nc3ccccn3)cc2)ccc1O"
readout_value = 101

[[record]]
molecule = "Cc1c(-c2ccc(-c3ccccc3F)cc2)nc2ccc(F)cc2c1C(=O)O"
readout_value = 98.5

[[record]]
molecule = "O=C1O[C@H]([C@@H](O)CO)C(O)=C1O [Vitamin C (ascorbate)]"
readout_value = 100

[[record]]
molecule = "CCOP(=O)(OCC)C(=Cc1cc(C(C)(C)C)c(O)c(C(C)(C)C)c1)P(=O)(OCC)OCC"
readout_value = 98.1

[[record]]
molecule = "N/C(=N\\CCCC(N)C(=O)O)N[N+](=O)[O-] (stereo not drawn)"
readout_value = 105

[[record]]
molecule = "CCCCN1C[C@H](O)[C@@H](O)[C@H](O)[C@H]1CO"
readout_value = 93.3

[[record]]
molecule = "Cc1ccccc1C(C(=O)NC1CCCCC1)N(C(=O)Cn1ccnc1C)c1cccc(F)c1 (stereo not drawn)"
readout_value = 100

[[record]]
molecule = "Cc1cn([C@H]2C[C@H](O)[C@@H](COP(=O)(O)OP(=O)(O)O)O2)c(=O)[nH]c1=O [Thymidine diphosphate]"
readout_value = 92.5


---

tested on: MV4-11; details: 72 h
Entries and their measured IC50 (cell viability) follow.
MEASURED_ATTRIBUTE: IC50 (cell viability)

[[record]]
smiles_str = "O=C(NCCCCCCNC(=O)ONC1=CCCCC1)ONC1=CCCCC1"
measured_attribute = "IC50 (cell viability)"
readout_value = "> 10 µM"

[[record]]
smiles_str = "O=C(C1CC1)N1CC[C@@H](C=C2NNC(=O)N2c2ccc(-c3ccc4occc4c3)cc2)C1"
measured_attribute = "IC50 (cell viability)"
readout_value = "> 10 µM"

[[record]]
smiles_str = "Nc1nc(Cl)nc2c1ncn2[C@H]1C[C@H](O)[C@@H](CO)O1"
measured_attribute = "IC50 (cell viability)"
readout_value = "0.0202 µM"

[[record]]
smiles_str = "CCOP(=O)(OCC)C(=Cc1cc(C(C)(C)C)c(O)c(C(C)(C)C)c1)P(=O)(OCC)OCC"
measured_attribute = "IC50 (cell viability)"
readout_value = "> 10 µM"

[[record]]
smiles_str = "C=C(C=NNC(=N)N)NNC(=N)N"
measured_attribute = "IC50 (cell viability)"
readout_value = "1.13 µM"

[[record]]
smiles_str = "O=C(O)C(=O)CBr"
measured_attribute = "IC50 (cell viability)"
readout_value = "> 10 µM"


---

test system: myeloid leukemia patient primary cells Pat.10; experiment: cell viability (% survival relative to DMSO control); higher = less cytotoxic; settings: 10 nM; 72 h
MEASURED_ATTRIBUTE: cell viability (%)

[[record]]
smiles_str = "O=C(O)Cn1nnc(-c2cc(N3CCC(Oc4cc(F)ccc4Br)CC3)no2)n1"
readout_value = 80.7

[[record]]
smiles_str = "Nc1nc(Cl)nc2c1ncn2[C@H]1C[C@H](O)[C@@H](CO)O1"
readout_value = 33.1

[[record]]
smiles_str = "COc1cc(/C=C/C(=O)N2CCC=CC2=O)cc(OC)c1OC"
readout_value = 77.8

[[record]]
smiles_str = "C=C(C=NNC(=N)N)NNC(=N)N"
readout_value = 59.4

[[record]]
smiles_str = "Cc1c(-c2ccc(-c3ccccc3F)cc2)nc2ccc(F)cc2c1C(=O)O"
readout_value = 81.4

[[record]]
smiles_str = "CN(C)C(=O)n1nnnc1Cc1ccc(-c2ccccc2)cc1"
readout_value = 75.2

[[record]]
smiles_str = "N#CC(C#N)=NNc1ccc(OC(F)(F)F)cc1"
readout_value = 64


---

system: HL-60; test: cell viability (% survival relative to DMSO control); higher = less cytotoxic; settings: 1 µM; 72 h; co-treatment: pictilisib 100 nM
MEASURED_ATTRIBUTE: cell viability (%)

[[record]]
molecule = "COc1ccc(C(=O)Nc2c(Cl)cncc2Cl)cc1OC1CCCC1 [Piclamilast]"
study_system = "HL-60"
readout_value = 95.3

[[record]]
molecule = "CC(C)(C#N)c1cc(Cn2cncn2)cc(C(C)(C)C#N)c1 [Anastrozole]"
study_system = "HL-60"
readout_value = 108

[[record]]
molecule = "O=C1O[C@H]([C@@H](O)CO)C(O)=C1O [Vitamin C (ascorbate)]"
study_system = "HL-60"
readout_value = 95.5

[[record]]
molecule = "COC(=O)[C@]12CCC(C)(C)C[C@H]1[C@H]1C(=O)C=C3[C@@]4(C)C=C(C#N)C(=O)C(C)(C)[C@@H]4CC[C@@]3(C)[C@]1(C)CC2 [Bardoxolone methyl]"
study_system = "HL-60"
readout_value = 78.4

[[record]]
molecule = "O=C(O)c1cc(Cl)cc(Cl)c1O [3,5-Dichlorosalicylic Acid]"
study_system = "HL-60"
readout_value = 107

[[record]]
molecule = "CCCCCCCCCCCC(=O)c1c(O)c(C(=O)CCCCCCCCCCC)c(O)c(C2CC(c3ccc(O)cc3)Oc3cc(O)ccc32)c1O (stereo unspecified)"
study_system = "HL-60"
readout_value = 101

[[record]]
molecule = "N#CC(C#N)=NNc1ccc(OC(F)(F)F)cc1 [FCCP]"
study_system = "HL-60"
readout_value = 104

[[record]]
molecule = "NC(=O)c1cccc(-c2cccc(OC(=O)NC3CCCCC3)c2)c1 [URB-597]"
study_system = "HL-60"
readout_value = 97.2

[[record]]
molecule = "O=C(NCCCCCCNC(=O)ONC1=CCCCC1)ONC1=CCCCC1"
study_system = "HL-60"
readout_value = 95

[[record]]
molecule = "NCCCC(N)(C(=O)O)C(F)F (stereo unspecified) [Difluoromethylornithine]"
study_system = "HL-60"
readout_value = 92.6

[[record]]
molecule = "COc1cc(/C=C/C(=O)N2CCC=CC2=O)cc(OC)c1OC [Piperlongumine]"
study_system = "HL-60"
readout_value = 83.8


---

test system: NOMO-1; assay: cell viability (% survival relative to DMSO control, bortezomib = 0%); higher = less cytotoxic; settings: 10000 nM; 72 h
Examples of compounds with documented cell viability follow.
MEASURED_ATTRIBUTE: cell viability (%)

[[record]]
compound = "CC(C)c1nc(CN(C)C(=O)N[C@H](C(=O)N[C@@H](Cc2ccccc2)C[C@H](O)[C@H](Cc2ccccc2)NC(=O)OCc2cncs2)C(C)C)cs1 [Ritonavir]"
measured_attribute = "cell viability"
unit_label = "%"
readout_value = 81.3

[[record]]
compound = "Oc1ccc(Nc2nc(-c3ccc(Cl)cc3)cs2)cc1 [SKI II]"
measured_attribute = "cell viability"
unit_label = "%"
readout_value = 66.1

[[record]]
compound = "CCCc1cc(-c2nc(-c3ccc(C)cc3)cs2)ccn1 [Fatostatin]"
measured_attribute = "cell viability"
unit_label = "%"
readout_value = 97.4

[[record]]
compound = "O=C(C1CC1)N1CC[C@@H](C=C2NNC(=O)N2c2ccc(-c3ccc4occc4c3)cc2)C1"
measured_attribute = "cell viability"
unit_label = "%"
readout_value = 89.9

[[record]]
compound = "Cc1coc2c1C(=O)C(=O)c1c-2ccc2c1CCCC2(C)C [Tanshinone IIA]"
measured_attribute = "cell viability"
unit_label = "%"
readout_value = 91.9

[[record]]
compound = "C[C@](N)(Cc1ccc(O)cc1)C(=O)O [Metirosine]"
measured_attribute = "cell viability"
unit_label = "%"
readout_value = 102

[[record]]
compound = "COc1ccc(S(=O)(=O)N2CCN(S(=O)(=O)c3ccc4c(c3)OCCO4)CC2)cc1 [BML283]"
measured_attribute = "cell viability"
unit_label = "%"
readout_value = 99.7

[[record]]
compound = "O[C@H]1[C@H]2[C@H](O)CCCN2C[C@H]1O [Swainsonine]"
measured_attribute = "cell viability"
unit_label = "%"
readout_value = 94.1


---

Reported cell viability values are given for each entry in this list.
system: myeloid leukemia patient primary cells Pat.15; assay: cell viability (% survival relative to DMSO control); higher = less cytotoxic; conditions: 1000 nM; 72 h
MEASURED_ATTRIBUTE: cell viability (%)

[[record]]
compound = "O=C(C1CC1)N1CC[C@@H](C=C2NNC(=O)N2c2ccc(-c3ccc4occc4c3)cc2)C1"
readout_value = 90.3

[[record]]
compound = "C=C(C=NNC(=N)N)NNC(=N)N [Mitoguazone]"
readout_value = 69.4

[[record]]
compound = "O=C1O/C(=C/Br)CCC1c1cccc2ccccc12 (stereo not drawn) [Bromoenol Lactone]"
readout_value = 89


---

test system: ML-2; experiment: cell viability (% survival relative to DMSO control, bortezomib = 0%); higher = less cytotoxic; conditions: 100 nM; 72 h
MEASURED_ATTRIBUTE: cell viability (%)

[[record]]
molecule = "O=C(O)C[C@@]1(O)C[C@@H](CCCCCCc2ccc(Cl)cc2Cl)OC1=O"
unit_label = "%"
readout_value = 106

[[record]]
molecule = "COc1ccc(C(=O)Nc2c(Cl)cncc2Cl)cc1OC1CCCC1"
unit_label = "%"
readout_value = 102

[[record]]
molecule = "O=C1O/C(=C/Br)CCC1c1cccc2ccccc12 (centres undefined)"
unit_label = "%"
readout_value = 94.6

[[record]]
molecule = "CC(C)c1nc(CN(C)C(=O)N[C@H](C(=O)N[C@@H](Cc2ccccc2)C[C@H](O)[C@H](Cc2ccccc2)NC(=O)OCc2cncs2)C(C)C)cs1"
unit_label = "%"
readout_value = 108

